- test: Stability of flavonoids and biotransformation products in mouse plasma under different handling conditions
- Assay type: in vitro ADME, mice
- condition parameters: room temperature (25 °C), 0 h; low nominal conc. (rutin 1.75; quercetin glucoside, quercitrin, tiliroside 11.02; kaempferol 1.12; m-HPAA, p-HPAA, DOPAC 1.95 µg/mL); n = 6
- Description: Plasma dried pulverized samples were extracted with methanol (HPLC grade, Merck). The extracts were filtered with Teflon membrane dimensions 0.45 μm by 13 mm (Millex®-LCR); 20 μL of each filtered sample was injected into the HPLC equipment. […] For all stability studies, fresh QC samples were evaluated by using a freshly prepared standard curve for the measurements. […]
property label: Observed Conc. 0 h (µg/mL)

compound	property label	val
C[C@@H]1O[C@@H](Oc2c(-c3ccc(O)c(O)c3)oc3cc(O)cc(O)c3c2=O)[C@H](O)[C@H](O)[C@H]1O	Observed Conc. 0 h	11.27
O=C(O)Cc1cccc(O)c1 [m-HPAA, meta-hydroxyphenylacetic acid]	Observed Conc. 0 h	1.91
O=c1c(O)c(-c2ccc(O)cc2)oc2cc(O)cc(O)c12	Observed Conc. 0 h	1.16

I = O=C(O)Cc1ccc(O)cc1 [p-HPAA, para-hydroxyphenylacetic acid]
II = O=c1c(O[C@@H]2O[C@H](CO)[C@@H](O)[C@H](O)[C@H]2O)c(-c2ccc(O)c(O)c2)oc2cc(O)cc(O)c12 [Quercetin glucoside, quercetin glucoside]
*Q* # compare Observed Conc. 0 h for I vs II ; return the one with the smaller value Label of pick, please.
*A* I
(I: 1.92 µg/mL, II: 11.16 µg/mL)

---

- test: Stability of flavonoids and biotransformation products in mouse plasma under different handling conditions
- Format: in vitro ADME, mice
- condition parameters: room temperature (25 °C), 0 h; high nominal conc.
property label: Accuracy Bias 0 h (%)

compound	Accuracy Bias 0 h (%)
O=c1c(O)c(-c2ccc(O)cc2)oc2cc(O)cc(O)c12 [Kaempferol, kaempferol]	−4.64
C[C@@H]1O[C@@H](Oc2c(-c3ccc(O)c(O)c3)oc3cc(O)cc(O)c3c2=O)[C@H](O)[C@H](O)[C@H]1O [Quercitrin, quercitrin]	0.56
O=c1c(O[C@@H]2O[C@H](CO)[C@@H](O)[C@H](O)[C@H]2O)c(-c2ccc(O)c(O)c2)oc2cc(O)cc(O)c12 [Quercetin glucoside, quercetin glucoside]	2.86
C[C@@H]1O[C@@H](OC[C@H]2O[C@@H](Oc3c(-c4ccc(O)c(O)c4)oc4cc(O)cc(O)c4c3=O)[C@H](O)[C@@H](O)[C@@H]2O)[C@H](O)[C@H](O)[C@H]1O [Rutin, rutin]	−1.99
O=C(O)Cc1ccc(O)cc1 [p-HPAA, para-hydroxyphenylacetic acid]	1.64

P = O=C(O)Cc1cccc(O)c1 [m-HPAA, meta-hydroxyphenylacetic acid]
Q = O=C(O)Cc1ccc(O)c(O)c1 [DOPAC, 3,4-dihydroxyphenylacetic acid]
*Q* Quick one: lower Accuracy Bias 0 h, P or Q ? // output: label of the selected item
*A* Q
(Q: 0.26%, P: 1.88%)

---

- test: Stability of flavonoids and biotransformation products in mouse plasma under different handling conditions
- Assay type: in vitro ADME, mice
- condition parameters: room temperature (25 °C), 8 h; high nominal conc. (7.00; 44.37; 4.50; 31.25 µg/mL); n = 6
property label: Observed Conc. 8 h (µg/mL)

molecule	Observed Conc. 8 h (µg/mL)
O=C(O)Cc1cccc(O)c1 [m-HPAA, meta-hydroxyphenylacetic acid]	31.53

I = O=c1c(O[C@@H]2O[C@H](CO)[C@@H](O)[C@H](O)[C@H]2O)c(-c2ccc(O)c(O)c2)oc2cc(O)cc(O)c12 [Quercetin glucoside, quercetin glucoside]
II = O=c1c(O)c(-c2ccc(O)cc2)oc2cc(O)cc(O)c12
*Q* Parameter metric = Observed Conc. 8 h. Return the lower-valued option from I and II . Please reply using the label of the selected record.
*A* II
